Test system: HL-60(TB) leukemia
Test: NCI-60 one-dose screen, 48 h (100 = growth as untreated, 0 = no growth, -100 = all killed)
Details: 10 µM unless noted
About 83,000 compounds went through this panel and 20% of them were active in at least one assay; those are over-represented in the sample as a whole. Calls of active or inactive are those of the source. How the source made its calls: active means growth percent below 10; inactive means the rest.

Structure: O=c1[nH]c2ccccc2cc1CSc1ccccc1Nc1nccc(-c2ccc3c(c2)OCO3)n1
growth: 98% (inactive)
--
Structure: NS(=O)(=O)c1ccc(NC(=O)CSc2ccc(-c3ccc(Cl)cc3)nn2)c(Br)c1
growth: 98% (inactive)
--
Structure: CN1CCN(c2ccc(C(=O)/C=C/c3ccc(C#N)cc3)cc2)CC1
growth: 65.1% (inactive)

* * *

Test system: CAKI-1 renal
Assay: NCI-60 one-dose screen, 48 h
Settings: 10 µM
About 83,000 compounds went through this panel and 20% of them were active in at least one assay; those are over-represented in the sample as a whole. The source made the active and inactive calls. How the source made its calls: active means growth percent below 10; inactive means the rest.
Classes used: active, inactive

Molecule: COCCOCCOCCOc1ccc(-n2cc(-c3ccc(O[C@H]4O[C@@H]5OC6(C)CC[C@H]7[C@H](C)CC[C@@H]([C@H]4C)[C@@]57OO6)cc3)nn2)cc1
Answer label: inactive
--
Molecule: CC12OOC(C)(OO1)C2CCC(=O)OCCNc1ccnc2cc(Cl)ccc12 (stereo not given)
Answer label: active
--
Molecule: COc1cc(OC)c(S(=O)(=O)N(CCCl)CCCl)cc1C(=O)/C=C/c1ccc(C)cc1
Answer label: inactive
--
Molecule: O=C(NC([Se])=NC1CCCCC1)c1ccccc1
Answer label: inactive
--
Molecule: CCC[Se]C(=O)c1ccc(C(=O)[Se]CCC)s1
Answer label: active

* * *

Test system: NCI/ADR-RES ovarian
Test: NCI-60 one-dose screen, 48 h
Details: 10 µM
The panel holds about 83,000 compounds, 20% with a hit somewhere; the sample as a whole holds those more often. Calls of active or inactive are those of the source. Rule for the calls: active = growth percent below 10; inactive = the rest.
Classes used: T (active), F (inactive)

Compound: Cc1c2oc3c(C)ccc(C(=O)N[C@@H]4C(=O)N[C@H](C(C)C)C(=O)N5CCC[C@H]5C(=O)N(C)CC(=O)N(C)[C@@H](C(C)C)C(=O)OC4C)c3nc-2c(C(=O)N[C@@H]2C(=O)N[C@H](C(C)C)C(=O)N3CC(=O)C[C@H]3C(=O)N(C)CC(=O)N(C)[C@@H](C(C)C)C(=O)OC2C)c(N)c1=O (some centres not stated)
Answer label: T
//
Compound: CC1=C(COCCOC(=O)c2ccc(S(=O)(=O)F)cc2)C2=C(C)C3(CC3)[C@@](C)(O)C(=O)C2=C1
Answer label: T
//
Compound: CC1=C(C=O)C2=C(C)C3(CC3)[C@@](C)(O)C(=O)C2=C1
Answer label: F
//
Compound: O=C(NC([Se])=NC1CCCCC1)c1ccccc1
Answer label: F
//
Compound: CC[C@]12C=CCN3CC[C@@]4(c5ccc(OC)cc5N(C)[C@H]4[C@@](O)(C(=O)OC)[C@@H]1OC(=O)CCCC[P+](C1CCCCC1)(C1CCCCC1)C1CCCCC1)[C@@H]32
Answer label: F
//
Compound: CC(C)C[C@H](NC(=O)CNC(=O)C[C@H]1O[C@@H]2OC3(C)CC[C@H]4[C@H](C)CC[C@@H]([C@H]1C)[C@@]24OO3)B(O)O
Answer label: F
//
Compound: O=C(/C=C/c1ccccc1)c1nc2ccccc2n1Cc1ccc(Br)cc1
Answer label: T
